Known Inhibition of a selection of compounds
Test system: Staphylococcus aureus
Conditions: Concentration 32 ug.mL-1; ASSAY_TEST Inhibition of Bacterial Growth; detection method Absorption (OD600); MEDIA CAMHB; plate type 384well; NBS; CORNING #3640; time 18 hr
Description: Antibacterial activity against Staphylococcus aureus MRSA ATCC 43300 (CO-ADD:GP_020); MIC in CAMBH media, using NBS plates, by OD(600)
Results with a measured potency or affinity are listed apart.

compound-structure-string: O=[N+]([O-])c1ccc(-c2ccccc2Nc2ccccc2)c(Cl)c1
unit-info: %
Inhibition: 13.69
--
compound-structure-string: N#Cc1ccc(-c2ccccc2Nc2ccccc2)cc1
unit-info: %
Inhibition: 12.74
--
compound-structure-string: COc1cccc(Nc2ccccc2)c1-c1ccc([N+](=O)[O-])cc1
unit-info: %
Inhibition: 23.81
--
compound-structure-string: COc1cccc(Nc2ccccc2)c1-c1c(Cl)cc(Br)cc1Cl
unit-info: %
Inhibition: 19.63
--
compound-structure-string: O=[N+]([O-])c1ccc(-c2cccc3c2[nH]c2ccccc23)cc1
unit-info: %
Inhibition: 21.52
--
compound-structure-string: CC[C@@H](Nc1ccccc1-c1c(Cl)cc(Br)cc1Cl)c1ccccc1
unit-info: %
Inhibition: 29.88
--
compound-structure-string: O=[N+]([O-])c1ccc(-c2ccccc2Nc2ccccc2)cc1F
unit-info: %
Inhibition: 18.96
--
compound-structure-string: CN(c1ccccc1)c1ccccc1-c1ccc([N+](=O)[O-])cc1
unit-info: %
Inhibition: 9.33
--
compound-structure-string: O=[N+]([O-])c1ccc(-c2ccccc2Nc2ccccc2Br)cc1
unit-info: %
Inhibition: 15.02
--
compound-structure-string: Cc1cc(C)c(Nc2ccccc2-c2ccc([N+](=O)[O-])cc2)c(C)c1
unit-info: %
Inhibition: -5.17
--
compound-structure-string: c1ccc(Nc2ccccc2-c2ncccn2)cc1
unit-info: %
Inhibition: 6.34
--
compound-structure-string: Cc1cccc(C)c1Nc1ccccc1-c1ccccc1[N+](=O)[O-]
unit-info: %
Inhibition: 57.09
--
compound-structure-string: CC(=O)c1ccc(-c2ccccc2Nc2ccccc2)cc1
unit-info: %
Inhibition: 12.03
--
compound-structure-string: Cc1cc([N+](=O)[O-])ccc1-c1ccccc1N(C)c1ccccc1
unit-info: %
Inhibition: -10.68
